# pKi values compiled below
Target chain: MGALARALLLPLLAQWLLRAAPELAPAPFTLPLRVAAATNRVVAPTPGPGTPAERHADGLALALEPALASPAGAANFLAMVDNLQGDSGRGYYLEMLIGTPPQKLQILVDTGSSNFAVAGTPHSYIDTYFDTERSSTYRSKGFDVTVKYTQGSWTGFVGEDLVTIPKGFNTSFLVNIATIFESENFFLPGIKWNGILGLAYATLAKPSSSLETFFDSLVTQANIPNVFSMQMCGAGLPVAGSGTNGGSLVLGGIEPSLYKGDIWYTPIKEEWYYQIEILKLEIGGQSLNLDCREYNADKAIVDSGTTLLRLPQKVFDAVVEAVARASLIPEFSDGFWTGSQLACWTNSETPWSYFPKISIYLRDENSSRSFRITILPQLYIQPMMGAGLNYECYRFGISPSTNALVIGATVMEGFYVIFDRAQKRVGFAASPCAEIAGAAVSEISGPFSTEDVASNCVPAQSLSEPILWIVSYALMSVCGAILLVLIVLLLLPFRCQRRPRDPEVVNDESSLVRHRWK
pKi: −log10 of the molar value.

chemical_structure	pKi
COc1cnc2c(C(=O)Nc3ccc(F)c([C@]45CCC[C@H]4S(=O)(=O)N(C)C(=N)N5)c3)nccc2c1	8.00
CN1C(=N)N[C@@]2(c3cc(NC(=O)c4nccc5cc(Br)cnc45)ccc3F)CCC[C@H]2S1(=O)=O	9.30

* * *

Molecular target: Beta-secretase 1 (Homo sapiens, UniProt P56817)
Sequence (P56817 whole entry): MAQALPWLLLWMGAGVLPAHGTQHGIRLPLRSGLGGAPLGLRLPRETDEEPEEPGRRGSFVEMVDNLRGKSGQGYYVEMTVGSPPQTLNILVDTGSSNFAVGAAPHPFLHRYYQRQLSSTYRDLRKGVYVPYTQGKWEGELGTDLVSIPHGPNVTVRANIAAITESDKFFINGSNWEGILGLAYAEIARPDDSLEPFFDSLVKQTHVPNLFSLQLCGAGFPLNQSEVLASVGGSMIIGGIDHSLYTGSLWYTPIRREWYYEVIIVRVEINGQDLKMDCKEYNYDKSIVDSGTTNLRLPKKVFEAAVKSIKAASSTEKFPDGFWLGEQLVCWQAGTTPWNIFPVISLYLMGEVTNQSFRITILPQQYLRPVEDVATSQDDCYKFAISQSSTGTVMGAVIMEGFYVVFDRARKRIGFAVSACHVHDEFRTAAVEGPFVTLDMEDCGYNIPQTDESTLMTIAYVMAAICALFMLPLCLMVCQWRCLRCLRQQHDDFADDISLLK
observed_property: Ki (µM)

chemical_structure	observed_result
COc1cnc2c(C(=O)Nc3ccc(F)c([C@]45CCC[C@H]4S(=O)(=O)N(C)C(=N)N5)c3)nccc2c1	0.031
